Recorded viability, T/C values for a group of compounds are listed next.
Test system: SW 982 tumor spheroid viability
Assay: Anticancer human tumor SW 982 cell line growth inhibition;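 also: spheroids exposed to compound for 7 days before readout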
Details: second compound 0.000949 µM; first compound 0.1 µM; hits give low values; spheroids with HUVEC and MSC
measurement-type: viability, T/C

compound	result
Cc1cc(C)c(CNC(=O)c2cc(-c3ccc(CN4CCOCC4)cc3)cc3c2cnn3C2CCCC2)c(=O)[nH]1 + COc1cc2c(cc1O)CCNC21CSC2c3c(OC(C)=O)c(C)c4c(c3C(COC1=O)N1C(O)C3Cc5cc(C)c(OC)c(O)c5C(C21)N3C)OCO4	39.9%
CC(C)n1c(=O)n(C)c2cnc3cc(F)c(-c4ccc(OCCCN5CCCCC5)nc4)cc3c21 + COc1cc2c(cc1O)CCNC21CSC2c3c(OC(C)=O)c(C)c4c(c3C(COC1=O)N1C(O)C3Cc5cc(C)c(OC)c(O)c5C(C21)N3C)OCO4	30.3%
COc1ccc([C@@H](O)c2cc(-c3ncnc4cc(N5CCOCC5)ccc34)c(F)cc2Cl)nn1 + COc1cc2c(cc1O)CCNC21CSC2c3c(OC(C)=O)c(C)c4c(c3C(COC1=O)N1C(O)C3Cc5cc(C)c(OC)c(O)c5C(C21)N3C)OCO4	32.6%
[2H]c1nc(C)nc([2H])c1-c1cc(NC[C@@H](C)c2cccc3c(C(=O)NC)ccnc23)ncn1 + COc1cc2c(cc1O)CCNC21CSC2c3c(OC(C)=O)c(C)c4c(c3C(COC1=O)N1C(O)C3Cc5cc(C)c(OC)c(O)c5C(C21)N3C)OCO4	26.5%
CC1COCCN1c1cc(-c2ccnn2C)c2ccnc(-c3ccn[nH]3)c2n1 (stereo unspecified) + COc1cc2c(cc1O)CCNC21CSC2c3c(OC(C)=O)c(C)c4c(c3C(COC1=O)N1C(O)C3Cc5cc(C)c(OC)c(O)c5C(C21)N3C)OCO4	10.5%
COc1cc(C)[nH]c(=O)c1CN1CCc2c(Cl)cc(C(OC)C3COC3)c(Cl)c2C1=O (stereo unspecified) + COc1cc2c(cc1O)CCNC21CSC2c3c(OC(C)=O)c(C)c4c(c3C(COC1=O)N1C(O)C3Cc5cc(C)c(OC)c(O)c5C(C21)N3C)OCO4	48.7%

* * *

System: SW 982 tumor spheroid viability
Test: Anticancer human tumor SW 982 cell line growth inhibition;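 also: spheroids exposed to compound for 7 days before readout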
Conditions: second compound 0.00949 µM; first compound 1 µM; hits give low values; spheroids with HUVEC and MSC
Procedure: Multicellular complex tumor spheroid response to DNA repair inhibitors in combination with DNA-damaging drugs This study explores the anticancer activities of DNA-damaging drugs and inhibitors of DNA damage repair, both as single agents and in combinations. […] Twenty-six patient-derived or established malignant cell lines were evaluated representing sarcoma, melanoma, small cell lung cancer (SCLC), non-small cell lung cancer (NSCLC), as well as bladder, ovarian and pancreatic cancers. […]
Recorded viability, T/C values for a group of molecules are listed next.

molecule	viability, T/C
COc1ccc([C@@H](O)c2cc(-c3ncnc4cc(N5CCOCC5)ccc34)c(F)cc2Cl)nn1 + CC[C@@]1(O)C(=O)OCc2c1cc1n(c2=O)Cc2cc3c(CN(C)C)c(O)ccc3nc2-1	72.2%
CC(C)n1c(=O)n(C)c2cnc3cc(F)c(-c4ccc(OCCCN5CCCCC5)nc4)cc3c21 + CC[C@@]1(O)C(=O)OCc2c1cc1n(c2=O)Cc2cc3c(CN(C)C)c(O)ccc3nc2-1	61.4%
Cc1cc(C)c(CNC(=O)c2cc(-c3ccc(CN4CCOCC4)cc3)cc3c2cnn3C2CCCC2)c(=O)[nH]1 + CC[C@@]1(O)C(=O)OCc2c1cc1n(c2=O)Cc2cc3c(CN(C)C)c(O)ccc3nc2-1	85%
